Hi there, I'd appreciate the recorded concentration at 0.25 h for every entry that follows.
PROTOCOL TEXT: Pharmacokinetic analyses in mouse
Type: in vivo
ASSAY CONDITIONS: mouse, plasma, iv, 5 mg/kg, mouse, 5 mg/kg i.v., 0.25 h, individual animals; read-out: Plasma concentration

COMPOUND	EXPERIMENTAL RESULT
Cc1ncsc1-c1ccc(C(CCC(C)CCN2CCC(c3ccc4c(c3)n(C3CCCC3)c3nc(=O)c5c(Br)cccc5n43)CC2)NC(=O)C2CC(O)CN2C(=O)C(NC(=O)C2(F)CC2)C(C)(C)C)cc1 (centres unmarked)	6.8 µM

Please look at the following compound next.
Q) Query concentration at 0.25 h for Cc1ncsc1-c1ccc([C@H](CCCCCN2CCC(c3ccc4c(c3)n(C3CCCC3)c3nc(=O)c5c(Br)cccc5n43)CC2)NC(=O)[C@@H]2C[C@@H](O)CN2C(=O)[C@@H](NC(=O)C2(F)CC2)C(C)(C)C)cc1
A) 8.05 µM

====

Hi there, I'd appreciate the recorded pEC50 for every entry that follows.
SUBJECT OF TEST: VCB: PROTAC: SMARCA4^BD ternary complex (Homo sapiens, UniProt P40337+P51532)
Sequence (P51532 1448-1569): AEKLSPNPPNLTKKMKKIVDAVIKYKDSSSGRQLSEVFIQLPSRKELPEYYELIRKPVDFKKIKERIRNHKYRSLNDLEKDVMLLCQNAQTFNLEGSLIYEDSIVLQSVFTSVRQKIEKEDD
Sequence (P40337 54-213): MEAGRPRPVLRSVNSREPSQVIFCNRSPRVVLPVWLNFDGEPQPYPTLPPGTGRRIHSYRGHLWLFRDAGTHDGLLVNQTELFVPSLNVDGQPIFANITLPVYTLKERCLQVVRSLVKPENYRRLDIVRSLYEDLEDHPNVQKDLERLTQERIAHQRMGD
Sequence (Q15369 17-112 partner): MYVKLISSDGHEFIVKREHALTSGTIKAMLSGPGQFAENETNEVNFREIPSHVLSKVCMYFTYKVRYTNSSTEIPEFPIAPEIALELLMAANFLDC
Sequence (Q15370 1-104 partner): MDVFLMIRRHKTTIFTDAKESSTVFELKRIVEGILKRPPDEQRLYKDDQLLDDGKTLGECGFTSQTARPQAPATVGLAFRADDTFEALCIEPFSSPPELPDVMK
PROTOCOL TEXT: TR-FRET ternary complex affinity and cooperativity, SMARCA4
Format: binding
Parameters: P51532, residues 1448–1569 with additional N-terminal SM residues; GST (TEV site) (N); His6 (TEV site) (N, cleaved yes); made in house; host or cells: SMARCA4^BD: Escherichia coli BL21(DE3)
ASSAY CONDITIONS: TR-FRET competition for SMARCA4BD, + VCB; mean ± SD; read-out: TR-FRET Ternary SMARCA4BD EC50 (PROTAC + VCB)
Give bare numbers, as −log10 of the molar value.

COMPOUND	pEC50
Cc1ncsc1-c1ccc([C@H](COCCN2CCC(c3ccc4c(c3)n(C3CCCC3)c3nc(=O)c5c(Br)cccc5n43)CC2)NC(=O)[C@@H]2C[C@@H](O)CN2C(=O)[C@@H](NC(=O)C2(N(C)C)CC2)C(C)(C)C)cc1	7.25
Nc1cccc2c1c(=O)nc1n(C3CCCC3)c3ccccc3n21	5.63
Cc1ncsc1-c1ccc(CNC(=O)[C@@H]2C[C@@H](O)CN2C(=O)[C@@H](NC(=O)C2(F)CC2)C(C)(C)C)c(OCCN2CCC(c3ccc4c(c3)n(C3CCCC3)c3nc(=O)c5c(Br)cccc5n43)CC2)c1	6.51
Cc1ncsc1-c1ccc([C@H](CC[C@@H](C)CCN2CCC(c3ccc4c(c3)n(C3CCCC3)c3nc(=O)c5c(Br)cccc5n43)CC2)NC(=O)[C@@H]2C[C@@H](O)CN2C(=O)[C@@H](NC(=O)C2(F)CC2)C(C)(C)C)cc1	7.22
Cc1ncsc1-c1ccc(CNC(=O)[C@@H]2C[C@@H](O)CN2C(=O)[C@@H](NC(=O)C2(F)CC2)C(C)(C)C)c(OCCOCCOCCN2CCC(c3ccc4c(c3)n(C3CCCC3)c3nc(=O)c5c(Br)cccc5n43)CC2)c1	6.89

# return pEC50 for each item in the list
1. O=c1nc2n(C3CCCC3)c3ccccc3n2c2cccc(Br)c12
2. CN1CCC(c2ccc3c(c2)n(C2CCCC2)c2nc(=O)c4c(Br)cccc4n32)CC1
3. Cc1ncsc1-c1ccc([C@H](COC(C)CN2CCC(c3ccc4c(c3)n(C3CCCC3)c3nc(=O)c5c(Br)cccc5n43)CC2)NC(=O)[C@@H]2C[C@@H](O)CN2C(=O)[C@@H](NC(=O)C2(F)CC2)C(C)(C)C)cc1 (some centres unmarked)

A)
1: 6.07; 2: 6.97; 3: 6.98

# return pEC50 for each item in the list
1. Cc1ncsc1-c1ccc([C@H](COCCCN2CCC(c3ccc4c(c3)n(C3CCCC3)c3nc(=O)c5c(Br)cccc5n43)CC2)NC(=O)[C@@H]2C[C@@H](O)CN2C(=O)[C@@H](NC(=O)C2(F)CC2)C(C)(C)C)cc1
2. Cc1ncsc1-c1ccc(C(CCC(C)CCN2CCC(c3ccc4c(c3)n(C3CCCC3)c3nc(=O)c5c(Br)cccc5n43)CC2)NC(=O)C2CC(O)CN2C(=O)C(NC(=O)C2(F)CC2)C(C)(C)C)cc1 (centres unmarked)
3. Cc1ncsc1-c1ccc([C@H](COC(C)(C)CN2CCC(c3ccc4c(c3)n(C3CCCC3)c3nc(=O)c5c(Br)cccc5n43)CC2)NC(=O)[C@@H]2C[C@@H](O)CN2C(=O)[C@@H](NC(=O)C2(F)CC2)C(C)(C)C)cc1

A)
1: 7.16; 2: 7.07; 3: 7.12

====

PROTOCOL TEXT: Cell viability assay (CellTiter Glo) in a panel of cell lines
Format: cell-based, human
ASSAY CONDITIONS: Homo sapiens, LXFL 529L, LXFL_529L; values derived from curves in Extended Fig 4b; read-out: EC50 mean
PROPERTY MEASURED: EC50 (nM)
Numbers only, in nM.

Q) Query EC50 for Cc1ncsc1-c1ccc(C(CCC(C)CCN2CCC(c3ccc4c(c3)n(C3CCCC3)c3nc(=O)c5c(Br)cccc5n43)CC2)NC(=O)C2CC(O)CN2C(=O)C(NC(=O)C2(F)CC2)C(C)(C)C)cc1 (stereo not shown) [ACBI2]
A) 0.382

====

PROTOCOL TEXT: Pharmacokinetic analyses in mouse
Assay type: in vivo
ASSAY CONDITIONS: NMRI, mouse, plasma, iv, 5 mg/kg, NMRI mice, i.v., 5 mg/kg, PK study; read-out: AUC0-inf
PROPERTY MEASURED: AUC(0-inf) (µM·h)
One number for each entry, in µM·h.

COMPOUND	PROPERTY MEASURED	EXPERIMENTAL RESULT
Cc1ncsc1-c1ccc([C@H](CCCCCN2CCC(c3ccc4c(c3)n(C3CCCC3)c3nc(=O)c5c(Br)cccc5n43)CC2)NC(=O)[C@@H]2C[C@@H](O)CN2C(=O)[C@@H](NC(=O)C2(F)CC2)C(C)(C)C)cc1	AUC(0-inf)	36

Please look at the following compound next.
Q) Query AUC(0-inf) for Cc1ncsc1-c1ccc(C(CCC(C)CCN2CCC(c3ccc4c(c3)n(C3CCCC3)c3nc(=O)c5c(Br)cccc5n43)CC2)NC(=O)C2CC(O)CN2C(=O)C(NC(=O)C2(F)CC2)C(C)(C)C)cc1 (centres unmarked)
A) 38

====

PROTOCOL TEXT: Bidirectional permeability measurement in Caco-2 cells
Format: in vitro ADME
ASSAY CONDITIONS: human, Caco-2, pH 7.4, Caco-2, b to a; read-out: Caco-2 Pba
PROPERTY MEASURED: Papp B→A at 1 µM (×10⁻⁶ cm/s)
Give bare numbers, in ×10⁻⁶ cm/s.

Check out these entries, answers already filled in.
SMILES STRING	Papp B→A at 1 µM (×10⁻⁶ cm/s)
O=c1nc2n(C3CCCC3)c3ccccc3n2c2cccc(Br)c12	23.9
O=c1nc2n(C3CCCC3)c3cc(C4CCNCC4)ccc3n2c2cccc(Br)c12	32.6

Please look at the following compound next.
Q) Query Papp B→A at 1 µM for Cc1ncsc1-c1ccc([C@H](CC[C@H](C)CCN2CCC(c3ccc4c(c3)n(C3CCCC3)c3nc(=O)c5c(Br)cccc5n43)CC2)NC(=O)[C@@H]2C[C@H](O)CN2C(=O)[C@@H](NC(=O)C2(F)CC2)C(C)(C)C)cc1
A) 8.5

====

PROTOCOL TEXT: Plasma protein binding
Assay type: in vitro ADME
ASSAY CONDITIONS: rat, plasma, rat; fraction unbound; read-out: PPB fu Rat
Hi there, I'd appreciate the recorded fraction unbound at 5 h, 3 µmol/L for every entry that follows.

MOLECULE	fraction unbound at 5 h, 3 µmol/L
Cc1ncsc1-c1ccc(C(CCC(C)CCN2CCC(c3ccc4c(c3)n(C3CCCC3)c3nc(=O)c5c(Br)cccc5n43)CC2)NC(=O)C2CC(O)CN2C(=O)C(NC(=O)C2(F)CC2)C(C)(C)C)cc1 (centres unmarked) [ACBI2]	< 0.0005

Please look at the following molecule next.
Q) Query fraction unbound at 5 h, 3 µmol/L for Cc1ncsc1-c1ccc([C@H](CCCCCN2CCC(c3ccc4c(c3)n(C3CCCC3)c3nc(=O)c5c(Br)cccc5n43)CC2)NC(=O)[C@@H]2C[C@@H](O)CN2C(=O)[C@@H](NC(=O)C2(F)CC2)C(C)(C)C)cc1 [compound 11]
A) < 0.0004

====

PROTOCOL TEXT: Microsomal stability
Assay type: in vitro ADME
ASSAY CONDITIONS: mouse liver microsomes
Method: […] Reactions were terminated by addition of acetonitrile and precipitates separated by centrifugation. Compound concentrations in supernatants were measured by HPLC-MS/MS and clearance was calculated from compound half-lives using the well-stirred liver model.
PROPERTY MEASURED: Mic. Stab. Mouse (% QH)
One number for each entry, in % QH.

Q) Query Mic. Stab. Mouse for Cc1ncsc1-c1ccc(CNC(=O)[C@@H]2C[C@@H](O)CN2C(=O)[C@@H](NC(=O)C2(F)CC2)C(C)(C)C)c(OCCCCN2CCC(c3ccc4c(c3)n(C3CCCC3)c3nc(=O)c5c(Br)cccc5n43)CC2)c1
A) 42
